Each entry below carries its reported kon.
- target or system: T1, IL13RA2 Protein, Rhesus macaque, His tag (Rhesus macaque, UniProt A0A5F8A9D9 27-343)
- T1 construct: the summary sentence says cynomolgous; also called Rhesus macaque IL13R alpha 2 protein with His tag; cynomolgous IL 13RA2 (as the text calls it); not shown: His tag
- T1 sequence: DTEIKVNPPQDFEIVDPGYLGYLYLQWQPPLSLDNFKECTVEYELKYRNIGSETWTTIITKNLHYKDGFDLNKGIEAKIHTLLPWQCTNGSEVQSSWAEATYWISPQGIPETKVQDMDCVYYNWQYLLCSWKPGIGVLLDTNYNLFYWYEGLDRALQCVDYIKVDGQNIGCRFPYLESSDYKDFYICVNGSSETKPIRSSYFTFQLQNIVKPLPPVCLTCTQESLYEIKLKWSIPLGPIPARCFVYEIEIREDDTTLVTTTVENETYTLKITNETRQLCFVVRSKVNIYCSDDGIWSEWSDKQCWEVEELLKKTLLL
- assay protocol: BLI; biotinylated VHH captured on streptavidin biosensor, antigen 1 uM in solution
- Experimental: Binding Affinity for the VH domains with IL13Rα2 are calculated as follows: Biotinylated VHHs were individually captured on streptavidin biosensors. VHH-captured biosensors were dipped in wells containing antigen and the binding response was measured. Biosensors were later dipped in buffer wells to observe the dissociation of bound antigen from captured VHH. (Schematic representation of the process depicted in FIG. 26, upper left corner). […]
property: kon (M⁻¹ s⁻¹)

binder	property	value measured
VH53f3 (VHH, biotinylated (site not stated), Expressed in E. coli and 6xHIS purified; also called VH53f3 Biotin; Anti-IL13Rα2 VH53) VHH: QVQLQESGGGLVQPGGSLRLSCEVSGSISSINRMAWYRQVPGKEREMVAQITYGDTIKYYGSAKGRFTISKDSAKNAVYLQMNSLKPEDTAVYRCNIVGVLTTGHYENSFWGQGTQVTVSS	kon	70200
VH43f2 (VHH, biotinylated (site not stated), Expressed in E. coli and 6xHIS purified; also called VH43f2-Biotin; Anti-IL13Rα2 VH43) VHH: QVQLQESGGGLVQPGGSLRLSCTASGSIRGIGYMAWGRQGPGKPRELIATINSAGDTNYAESVKGRFTVSRDNAENTLYLQMNNLKSEDTAVYYCNARPGLQSYWGQGTQVTVSS	kon	60500
VH52f3 (VHH, biotinylated (site not stated), Expressed in E. coli and 6xHIS purified; also called VH52f3 Biotin; Anti-IL13Rα2 VH52) VHH: QVQLQESGGGLVQPGGSLRLSCEVSGSIFSINRMAWYRQVPEKEREMVAQITYGDTIKYYGSAKGRFTISRDSAKNAVYLQMNSLKPEDTAVYRCNIVGVLTTGHYEDSFWGQGTQVTVPS	kon	67000
VH36f1 (VHH, biotinylated (site not stated), Expressed in E. coli and 6xHIS purified; also called VH36f1 Biotin; Anti-IL13Rα2 VH36) VHH: QVQLQESGGGSVQPGGSLRLSCAASGINISSDVMEWFRQGPGEQRELVAHITTNSRTEYADFVKGRFTISRANAKNTLYLQMNGLKPEDTALYYCALRRGGRILWGQGTQVTVSS	kon	69300
